# maps each entry to its koff
- test system: T1, biotin-labeled human PAD4 protein (human, UniProt Q9UM07 1-663, biotin on the Avi tag (biotin ligase BirA))
- T1 construct: also called Avi tag-human PAD4; biotin-labeled PAD4; not shown: Avi tag left on the N-terminal side after the GST tag was cleaved with PreScission Protease
- T1 sequence (Q9UM07 whole entry): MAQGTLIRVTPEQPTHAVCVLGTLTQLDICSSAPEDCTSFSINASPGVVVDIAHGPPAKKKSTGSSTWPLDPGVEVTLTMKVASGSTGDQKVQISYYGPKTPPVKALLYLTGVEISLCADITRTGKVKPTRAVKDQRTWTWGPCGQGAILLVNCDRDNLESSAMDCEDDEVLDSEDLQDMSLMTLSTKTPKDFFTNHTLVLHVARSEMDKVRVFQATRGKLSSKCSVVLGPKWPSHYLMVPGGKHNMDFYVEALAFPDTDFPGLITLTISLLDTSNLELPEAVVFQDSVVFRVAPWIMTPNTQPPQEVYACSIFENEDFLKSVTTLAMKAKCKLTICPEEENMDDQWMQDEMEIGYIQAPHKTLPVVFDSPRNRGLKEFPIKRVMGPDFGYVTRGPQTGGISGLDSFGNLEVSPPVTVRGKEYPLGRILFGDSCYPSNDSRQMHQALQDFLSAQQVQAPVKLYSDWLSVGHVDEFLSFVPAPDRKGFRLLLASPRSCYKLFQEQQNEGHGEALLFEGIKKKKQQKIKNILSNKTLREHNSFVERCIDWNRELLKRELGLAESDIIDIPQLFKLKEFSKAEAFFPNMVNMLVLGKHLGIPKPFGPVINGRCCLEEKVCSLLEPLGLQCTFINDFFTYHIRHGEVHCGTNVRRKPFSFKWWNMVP
- assay remarks: SPR, Biacore T200, biotin-labeled human PAD4 captured on chip, antibody as analyte, single-cycle, 1:1 model
Output spec: scalar in s⁻¹, unitless text.

anti-PAD4 antibody 3-1-39 (antibody, human IgG1, lambda, V domains shown, Lib1(6R)-1-39 with the 84th asparagine of the heavy chain substituted with serine; full-length IgG from ExpiCHO) VH: EVQLLESGGGLVQPGGSLRLSCAASGFTFSTYAMGWVRQAPGKGLEFVAAIRNDGSWTGTSVNAKTRFTISRDNSKNTLYLQMSSLRAEDTAVYYCAKYTGSSGGSIGAWGQGTLVTVSS VL: SYELTQPPSVSVSPGQTARITCSGGNRNYYYGWYQQKPGQAPVTVIYANDKRPSGIPERFSGSNSGSTTTLTISGVQAEDEADYYCGTATTGKYVFGGGTKLTVLG = 0.000626
anti-PAD4 antibody 2-1-47 (antibody, human IgG1, lambda, V domains shown, Lib2(4R)-1-47 with the 84th asparagine of the heavy chain substituted with serine; full-length IgG from ExpiCHO) VH: EVQLLESGGGLVQPGGSLRLSCAASGFTFSTYAMGWVRQAPGKGLEFVAAIRNDGSWTGYGTPYKTRFTISRDNSKNTLYLQMSSLRAEDTAVYYCAKYTGSSGGSIGAWGQGTLVTVSS VL: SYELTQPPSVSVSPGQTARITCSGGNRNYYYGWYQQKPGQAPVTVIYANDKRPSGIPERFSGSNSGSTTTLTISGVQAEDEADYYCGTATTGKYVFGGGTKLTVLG = 0.000507
anti-PAD4 antibody 4-2-25 (antibody, human IgG1, lambda, V domains shown, Lib2(5R)-2-25 with the 84th asparagine of the heavy chain substituted with serine; full-length IgG from ExpiCHO) VH: EVQLLESGGGLVQPGGSLRLSCAASGFTFSTYAMGWVRQAPGKGLEFVAAIRNDGSWTGYPPPLKGRFTISRDNSKNTLYLQMSSLRAEDTAVYYCAKYTGSSGGSIGAWGQGTLVTVSS VL: SYELTQPPSVSVSPGQTARITCSGGNRNYYYGWYQQKPGQAPVTVIYANDKRPSGIPERFSGSNSGSTTTLTISGVQAEDEADYYCGTAYTGKYVFGGGTKLTVLG = 0.000299

Turning now to a further record.
Give a short answer stating reported koff for anti-PAD4 antibody 3-2-37 (antibody, human IgG1, lambda, V domains shown, Lib1(6R)-2-37 with the 84th asparagine of the heavy chain substituted with serine; full-length IgG from ExpiCHO) VH: EVQLLESGGGLVQPGGSLRLSCAASGFTFSTYAMGWVRQAPGKGLEFVAAIRNDGSWTGIGYNQKSRFTISRDNSKNTLYLQMSSLRAEDTAVYYCGKYTGSSGGSIGAWGQGTLVTVSS VL: SYELTQPPSVSVSPGQTARITCSGGNRNYYYGWYQQKPGQAPVTVIYANDKRPSGIPERFSGSNSGSTTTLTISGVQAEDEADYYCGTALTGKYVFGGGTKLTVLG .
0.000617

These entries and their values trace back to patent US20240309112A1.
